- test system: human RXFP4 (Homo sapiens)
- Construct: expressed in transfected cells; host or cells: HEK293T
- Sequence (Q8TDU9 whole entry): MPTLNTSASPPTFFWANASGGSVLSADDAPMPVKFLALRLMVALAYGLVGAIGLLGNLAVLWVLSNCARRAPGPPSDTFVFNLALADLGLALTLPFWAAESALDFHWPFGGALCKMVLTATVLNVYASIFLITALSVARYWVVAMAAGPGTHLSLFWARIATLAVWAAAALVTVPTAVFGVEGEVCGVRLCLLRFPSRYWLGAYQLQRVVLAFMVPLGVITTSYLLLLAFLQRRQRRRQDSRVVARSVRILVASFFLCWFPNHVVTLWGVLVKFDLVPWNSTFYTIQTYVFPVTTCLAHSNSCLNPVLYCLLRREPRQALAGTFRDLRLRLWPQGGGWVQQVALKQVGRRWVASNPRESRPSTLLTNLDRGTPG
- experimental details: Receptor binding assay, competition with NanoLuc-conjugated R3/I5 tracer
- condition: HEK293T cells transiently overexpressing human RXFP4; 0.5 nM NanoLuc-conjugated R3/I5 tracer; 21 °C, 2 h; mean ± SE, n = 3; SEM
No end group written: not given here.
property name: pIC50 RXFP4
Reply briefly: the number, and no unit.

1) [A(B20)G,S(B21)G]INSL5: recombinant mature two-chain INSL5 mutant (Insulin-like peptide INSL5 B … KESVRLCGLEYIRTVIYICGGSRW; Insulin-like peptide INSL5 A … QDLQTLCCTDGCSMTDLSALC; not fully specified; ends and bridges not checked; UniProt Q9Y5Q6 23-46; Q9Y5Q6 115-135, looked up, variant A20G S21G) : 6.39

For [T(B14)A]INSL5: recombinant mature two-chain INSL5 mutant (Insulin-like peptide INSL5 B … KESVRLCGLEYIRAVIYICASSRW; Insulin-like peptide INSL5 A … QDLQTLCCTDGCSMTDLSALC; ends and bridges not checked; cysteine pairing not given here; UniProt Q9Y5Q6 23-46; Q9Y5Q6 115-135, looked up, variant T14A) the substance record lists pIC50 RXFP4 as 7.57

Record [R(B12)L,G(B23)A,G(B24)S]R3/I5: recombinant mature two-chain R3/I5 mutant (chain 1 RAAPYGVRLCGLEFIRAVIFTCASSRW; chain 2 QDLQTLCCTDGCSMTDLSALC; disulfide (positions not given here); not fully specified; also: A-chain N-terminal pyroglutamate likely) , field pIC50 RXFP4: 7.83
